System: D425 medulloblastoma cells
Assay: D425 cell viability / proliferation (CellTiter-Glo)
Type: cell-based
Details: Medulloblastoma cell; 48 hours treatment, CellTiter-Glo; read-out: IC50 for D425 cell growth
Procedure: D425 medulloblastoma cells were purchased from SigmaAldrich. D425 meduloblastoma cells were cultured in improved Dulbecco's modified Eagle's medium (DMEM) Richter's modification supplemented with 20% fetal bovine serum and 1% Penicillin-streptomycin. […] After treatment, cells were allowed to equilibrate at room temperature for one hour. Cell proliferation was measured by Luminescence quantification using Promega CellTiter-Glo Luminescent Cell Viability Assay. […]
parameter measured: IC50 (µM)
One number for each entry, in µM.

Solved entries (count: 2):
>>> test_result("O=S(=O)(NC1CCOC(C2c3ccccc3CCc3ccccc32)C1)c1ccc(C(F)(F)F)cc1 (stereo not drawn) [Example 10]")
6
>>> test_result("O=S(=O)(NC1CCOC(C2c3ccc(F)cc3CCc3cc(F)ccc32)C1)c1ccc(OC(F)(F)F)cc1 (stereo not drawn) [Example 6]")
5.8

As a next step, examine the compound that follows.
Prompt: Request the reported IC50 associated with O=S(=O)(NC1CCOC(C2c3ccccc3CCc3ccccc32)C1)c1ccc(Br)cc1 (stereo not drawn) [Example 12]
Response: 6.2
